targetSystem: T1, sEGFR-MMB (dimeric sEGFR mimetibody) (human)
T1 construct: Disulfide-linked homodimer: QIQ, sEGFR, flexible linker, J segment, human IgG1 hinge, CH2, CH3; also called sEGFR-Fc; dimeric EGFR
T1 sequence (chain, as listed by the source limits assumed): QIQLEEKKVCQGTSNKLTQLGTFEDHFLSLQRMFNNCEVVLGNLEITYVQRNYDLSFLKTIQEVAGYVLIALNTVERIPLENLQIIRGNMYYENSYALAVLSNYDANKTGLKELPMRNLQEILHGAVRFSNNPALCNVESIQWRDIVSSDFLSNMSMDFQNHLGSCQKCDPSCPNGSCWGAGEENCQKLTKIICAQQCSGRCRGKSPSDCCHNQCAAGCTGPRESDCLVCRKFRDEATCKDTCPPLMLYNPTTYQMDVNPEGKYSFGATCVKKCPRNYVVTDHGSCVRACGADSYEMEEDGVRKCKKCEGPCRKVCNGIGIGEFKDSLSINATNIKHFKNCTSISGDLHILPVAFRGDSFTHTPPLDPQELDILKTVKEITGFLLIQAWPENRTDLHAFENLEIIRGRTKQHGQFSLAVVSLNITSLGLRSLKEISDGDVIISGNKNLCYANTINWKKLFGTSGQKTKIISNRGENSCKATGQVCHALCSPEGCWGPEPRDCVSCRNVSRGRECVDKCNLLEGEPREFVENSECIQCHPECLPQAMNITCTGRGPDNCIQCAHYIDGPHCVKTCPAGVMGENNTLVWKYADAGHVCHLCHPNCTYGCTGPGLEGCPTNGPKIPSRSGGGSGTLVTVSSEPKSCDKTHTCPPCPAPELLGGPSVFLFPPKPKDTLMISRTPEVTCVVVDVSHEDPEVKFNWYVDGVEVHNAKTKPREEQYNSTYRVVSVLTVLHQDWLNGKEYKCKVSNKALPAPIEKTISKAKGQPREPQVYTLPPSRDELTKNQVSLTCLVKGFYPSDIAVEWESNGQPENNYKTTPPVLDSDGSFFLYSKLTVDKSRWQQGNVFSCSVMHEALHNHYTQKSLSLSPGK
assayComment: phage ELISA on coated sEGFR-MMB, chemiluminescence (background typically <200 units)
assayMetric: ELISA

As a guide, the following entries are already answered.
binder	ELISA
GGGCDCREAVSASLVCRYGGGSGGSGG (pIX phagemid display, library S19; not shown: M13 phage coat protein pIX (MSVL...)) [phage clone displaying SEQ ID NO: 41 (S19 hit)]	3350 units
GGGMICYLVDSGNIICYKGGGSGGSGG (pIX phagemid display, library S19; also called PP180; not shown: M13 phage coat protein pIX (MSVL...)) [phage clone P180 (SEQ ID NO: 37)]	8810 units
GGGAFCRLDFNQWLTCLVGGGSGGSGG (pIX phagemid display, library S19; not shown: M13 phage coat protein pIX (MSVL...)) [phage clone displaying SEQ ID NO: 40 (S19 hit)]	2580 units
GGGGPCVLIRDYYLLCLEGGGSGGSGG (pIX phagemid display, library S19; also called PP179; not shown: M13 phage coat protein pIX (MSVL...)) [phage clone P179 (SEQ ID NO: 39)]	14000 units

Consider the additional binder presented here.
Q. Reported ELISA, binder GGGYDCMIRADGSLICWCGGGSGGSGG (pIX phagemid display, library S19; not shown: M13 phage coat protein pIX (MSVL...)) [phage clone displaying SEQ ID NO: 38 (S19 hit)] : ____
A. 1290 units

Where do the numbers come from? From patent US20120213844A1.
